These data points were gathered from patent US20080249075A1.

tested on: T47D human breast carcinoma cells; test: cells; assay type: cell-based; conditions: Homo sapiens, T47D, 48 h, read-out: PS [100 nM] (% stimulation)
Recorded metric: activation at 0.1 µM (%)
Express it in %; write the number only.

Report activation at 0.1 µM for CC(=O)[C@H]1CC[C@H]2[C@@H]3C=CC4=CC(=O)CC[C@@]4(C)[C@@H]3[C@@H](OC(=O)Nc3cnc4ccccc4c3)C[C@]12C please. 5

And for COc1cc(NC(=O)O[C@H]2C[C@]3(C)[C@@H](C(C)=O)CC[C@H]3[C@@H]3C=CC4=CC(=O)CC[C@@]4(C)[C@@H]32)cc(OC)c1OC ? 0

And for CCO[C@]1(C(C)=O)CC[C@H]2[C@@H]3C=CC4=CC(=O)CC[C@@]4(C)[C@@H]3[C@@H](OC(=O)c3ccccc3)C[C@@]21C ? 16

And for CC(=O)[C@H]1CC[C@H]2[C@@H]3C=CC4=CC(=O)CC[C@@]4(C)[C@@H]3[C@@H](OC(=O)Nc3ccc4c(c3)OCO4)C[C@]12C ? 5

And for CC(=O)[C@H]1CC[C@H]2[C@@H]3C=CC4=CC(=O)CC[C@@]4(C)[C@@H]3[C@@H](OC(=O)NC(C)C)C[C@]12C [Compound No. 1, Dydrogesterone-11β-yl isopropylcarbamate] ? -3

And for COc1ccc(NC(=O)O[C@H]2C[C@]3(C)[C@@H](C(C)=O)CC[C@H]3[C@@H]3C=CC4=CC(=O)CC[C@@]4(C)[C@@H]32)cc1 ? 0

And for CCO[C@]1(C(C)=O)CC[C@H]2[C@@H]3C=CC4=CC(=O)C5CC5[C@@]4(C)[C@@H]3[C@@H](OC(=O)Nc3cccc(OC)c3)C[C@@]21C (stereo partly shown) ? 0

And for CC(=O)[C@H]1CC[C@H]2[C@@H]3C=CC4=CC(=O)CC[C@@]4(C)[C@@H]3[C@@H](OC(=O)Nc3ccc4cn[nH]c4c3)C[C@]12C ? 1

And for COc1cccc(NC(=O)O[C@H]2C[C@]3(C)[C@@H](C(C)=O)CC[C@H]3[C@@H]3C=CC4=CC(=O)CC[C@@]4(C)[C@@H]32)c1 ? -3

And for CSc1cccc(NC(=O)O[C@H]2C[C@]3(C)[C@@H](C(C)=O)CC[C@H]3[C@@H]3C=CC4=CC(=O)CC[C@@]4(C)[C@@H]32)c1 ? 1

And for CCNC(=O)O/N=C/c1cccc(NC(=O)O[C@H]2C[C@]3(C)[C@@H](C(C)=O)CC[C@H]3[C@@H]3C=CC4=CC(=O)CC[C@@]4(C)[C@@H]32)c1 ? 56

And for CCO[C@]1(C(C)=O)CC[C@H]2[C@@H]3C=CC4=CC(=O)CC[C@@]4(C)[C@@H]3[C@@H](OC(=O)Nc3ccc4c(c3)OCO4)C[C@@]21C ? 95

And for CC(=O)[C@H]1CC[C@H]2[C@@H]3C=CC4=CC(=O)CC[C@@]4(C)[C@@H]3[C@@H](OC(=O)Nc3cccc(C(N)=O)c3)C[C@]12C ? -1

----------
Molecular target: human progesterone receptor (Homo sapiens, UniProt P06401)
Sequence (P06401 679-933 limits assumed): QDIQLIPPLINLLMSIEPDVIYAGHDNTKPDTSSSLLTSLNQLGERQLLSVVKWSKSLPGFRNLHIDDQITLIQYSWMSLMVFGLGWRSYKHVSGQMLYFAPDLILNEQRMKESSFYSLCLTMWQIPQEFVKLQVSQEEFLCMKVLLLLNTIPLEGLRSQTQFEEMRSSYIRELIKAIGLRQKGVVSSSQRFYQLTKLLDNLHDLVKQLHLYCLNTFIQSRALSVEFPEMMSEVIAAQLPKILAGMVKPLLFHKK
Assay: Progesterone receptor binding assay, human PR (CEREP)
Conditions: 3H-R5020 as ligand, MCF7 cells as source of PR
Provide the reported Human PR binding (pKi) of each item.
Please reply with the value in numeric form only.

Report Human PR binding (pKi) for CC(=O)c1cccc(NC(=O)OC2C[C@]3(C)[C@@H](C(C)=O)CC[C@H]3[C@@H]3C=CC4=CC(=O)CC[C@]4(C)[C@@H]23)c1 (some centres unmarked) [compound 81] please. 6.6

And for CC(=O)Nc1ccc(NC(=O)OC2C[C@]3(C)[C@@H](C(C)=O)CC[C@H]3[C@@H]3C=CC4=CC(=O)CC[C@@]4(C)[C@H]23)cc1 (some centres unmarked) [compound 82] ? 6.6

And for CC(=O)[C@H]1CC[C@H]2[C@@H]3C=CC4=CC(=O)CC[C@@]4(C)[C@@H]3C(OC(=O)Nc3ccc4cnn(C)c4c3)C[C@]12C (some centres unmarked) [compound 99] ? 6.3

And for CC(=O)[C@H]1CC[C@H]2[C@@H]3C=CC4=CC(=O)CC[C@@]4(C)[C@@H]3C(OC(=O)Nc3ccc4c(c3)NC(=O)C(C)S4)C[C@]12C (some centres unmarked) [compound 102] ? 6.3

And for CC(=O)[C@H]1CC[C@H]2[C@@H]3C=CC4=CC(=O)CC[C@@]4(C)[C@@H]3C(OC(=O)NCc3ccc4c(c3)OCO4)C[C@]12C (some centres unmarked) [compound 42] ? 6.8
